Test system: human airway epithelial cells (HAECs)
experiment: Agilent miRNA chips, miRNA expression at four stages of differentiation of HAECs
conditions: stage D7; Table VI
Text: In parallel with the high-throughput sequencing of the microRNAs, the repertoire of expression of the microRNAs (microRNAome) is investigated using the technology of Agilent® microRNA chips. […]
quantity-name: Level of intensity of expression in log2 measured with the Agilent chips, D7 (log2)
# unit: log2 | format: bare number

Quick one: give measured Level of intensity of expression in log2 measured with the Agilent chips, D7 for hsa-miR-25: human miRNA, SEQ ID No. 27 (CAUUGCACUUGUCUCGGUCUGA; expressed or natural sequence; listed as Homo sapiens)
8.50

Quick one: give measured Level of intensity of expression in log2 measured with the Agilent chips, D7 for hsa-miR-449a: human miRNA, SEQ ID No. 46 (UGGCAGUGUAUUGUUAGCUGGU; expressed or natural sequence; listed as Homo sapiens)
8.00

Quick one: give measured Level of intensity of expression in log2 measured with the Agilent chips, D7 for hsa-miR-574-3p: human miRNA, SEQ ID No. 48 (CACGCUCAUGCACACACCCACA; expressed or natural sequence; listed as Homo sapiens)
6.42

Quick one: give measured Level of intensity of expression in log2 measured with the Agilent chips, D7 for hsa-miR-100: human miRNA, SEQ ID No. 1 (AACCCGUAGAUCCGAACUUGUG; expressed or natural sequence; listed as Homo sapiens)
7.55

Quick one: give measured Level of intensity of expression in log2 measured with the Agilent chips, D7 for hsa-miR-34c-5p: human miRNA, SEQ ID No. 40 (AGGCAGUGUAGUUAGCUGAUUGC; expressed or natural sequence; listed as Homo sapiens)
6.29

Quick one: give measured Level of intensity of expression in log2 measured with the Agilent chips, D7 for hsa-miR-17: human miRNA, SEQ ID No. 11 (CAAAGUGCUUACAGUGCAGGUAG; expressed or natural sequence; listed as Homo sapiens)
9.34

Quick one: give measured Level of intensity of expression in log2 measured with the Agilent chips, D7 for hsa-miR-30e: human miRNA, SEQ ID No. 36 (UGUAAACAUCCUUGACUGGAAG; expressed or natural sequence; listed as Homo sapiens)
9.50

----------
Test system: human airway epithelial cells (HAECs)
experiment: High-throughput sequencing (HTS) of miRNAs at four stages of differentiation of HAECs
conditions: stage D7; Table VI
Please mark T if the recorded Level of intensity of expression in log2 measured by high-throughput sequencing, D7 is equal to or greater than 9 log2, and F if it falls below.

Quick check: does hsa-miR-374a: human miRNA, SEQ ID No. 42 (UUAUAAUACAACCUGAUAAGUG; expressed or natural sequence; listed as Homo sapiens) have Level of intensity of expression in log2 measured by high-throughput sequencing, D7 greater than or equal to 9 log2?
F

Quick check: does hsa-miR-17: human miRNA, SEQ ID No. 11 (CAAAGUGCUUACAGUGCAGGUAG; expressed or natural sequence; listed as Homo sapiens) have Level of intensity of expression in log2 measured by high-throughput sequencing, D7 greater than or equal to 9 log2?
T

Quick check: does hsa-miR-100: human miRNA, SEQ ID No. 1 (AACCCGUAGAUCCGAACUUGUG; expressed or natural sequence; listed as Homo sapiens) have Level of intensity of expression in log2 measured by high-throughput sequencing, D7 greater than or equal to 9 log2?
T

Quick check: does hsa-miR-191: human miRNA, SEQ ID No. 13 (CAACGGAAUCCCAAAAGCAGCUG; expressed or natural sequence; listed as Homo sapiens) have Level of intensity of expression in log2 measured by high-throughput sequencing, D7 greater than or equal to 9 log2?
T
